src = patent US20030148958A1

system: T1, corticotropin releasing factor 2 receptor
T1 sequence (Q13324 whole entry, species assumed, looked up): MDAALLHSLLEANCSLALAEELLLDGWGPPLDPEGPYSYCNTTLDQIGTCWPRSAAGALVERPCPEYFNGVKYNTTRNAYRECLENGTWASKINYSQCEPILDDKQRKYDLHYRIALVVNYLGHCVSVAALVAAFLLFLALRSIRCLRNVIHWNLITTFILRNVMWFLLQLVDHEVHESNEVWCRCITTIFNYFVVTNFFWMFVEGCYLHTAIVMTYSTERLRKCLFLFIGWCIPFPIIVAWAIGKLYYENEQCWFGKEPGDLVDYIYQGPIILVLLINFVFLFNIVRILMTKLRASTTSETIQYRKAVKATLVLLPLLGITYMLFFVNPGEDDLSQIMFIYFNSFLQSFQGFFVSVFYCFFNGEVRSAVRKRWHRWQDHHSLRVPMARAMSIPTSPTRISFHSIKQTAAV
assay overview: cell-based or functional assay
Ends that are not written are not given here.
Measured CRF2R EC50 of individual entries
// return numeric value only (unit: nM, not printed)

The examples below pair each entry with its known result.
binder="ZGPPISIDLPIVLLRKMIEIEKQEKEKQQAANNRLLLDTI (C-terminal amide) [SEQ ID NO 31]" unit_spec=nM observed_measurement=30.8
binder="DNPSLSIDLPFFLLRTLLELARTQSQRERAEQNAIIFASV-NH2 [SEQ ID NO 184]" unit_spec=nM observed_measurement=3.72
binder="IVLSLDVPIGLLQILLEQARARAAREQATTQARILARV-NH2 [SEQ ID NO 9]" unit_spec=nM observed_measurement=100
binder="ZGPPISIDLSLELLRKMIEQARARAAREQATTNARILARV (C-terminal amide) [SEQ ID NO 156]" unit_spec=nM observed_measurement=9.29
binder="IVLSLDVPIGLLQILLEQTKADAAREQATTNARILARV-NH2 [SEQ ID NO 108]" unit_spec=nM observed_measurement=79

Let's switch to this binder now.
response.value for DNPSLSIDLPLFLLRTLLELARTQSQRERAEQNAIIFASV-NH2 [SEQ ID NO 178] (field: CRF2R EC50) = 5.17
